experimental_target: CYP 2C9 (Homo sapiens)
Sequence (P11712 whole entry): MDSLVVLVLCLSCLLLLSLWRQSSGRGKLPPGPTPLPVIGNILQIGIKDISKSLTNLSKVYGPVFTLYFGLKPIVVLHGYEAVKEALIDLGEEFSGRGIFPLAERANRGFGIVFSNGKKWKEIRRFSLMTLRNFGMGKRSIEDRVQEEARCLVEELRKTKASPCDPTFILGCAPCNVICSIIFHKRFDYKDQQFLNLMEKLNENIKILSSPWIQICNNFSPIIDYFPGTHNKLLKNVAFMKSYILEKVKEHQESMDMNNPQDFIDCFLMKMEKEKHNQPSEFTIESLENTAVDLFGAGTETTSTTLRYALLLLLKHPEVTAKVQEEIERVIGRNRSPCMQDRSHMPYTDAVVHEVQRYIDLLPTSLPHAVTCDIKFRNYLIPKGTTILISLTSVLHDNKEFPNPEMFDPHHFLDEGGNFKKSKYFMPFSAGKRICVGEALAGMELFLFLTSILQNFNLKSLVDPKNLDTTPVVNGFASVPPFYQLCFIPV
assay_metric: IC50

INSERT INTO measurements (compound_structure, test_result) VALUES
  ('Cn1cc2c(-c3cc(F)c(CN4Cc5ncccc5C4=O)c(F)c3)ccc(C(C)(C)O)c2n1', '> 30 µM');

###

test_details: brain homogenate binding (rat)
Format: in vitro ADME
test_parameters: pH 7.4, rat (r), read-out: fu,brain
assay_metric: fraction unbound at 6 h, 1 μM

INSERT INTO assay_data (compound_structure, test_result) VALUES
  ('Cn1cc2c(-c3cc(F)c(CN4Cc5ncccc5C4=O)c(F)c3)ccc(C(C)(C)O)c2n1', 0.027);

The origin of these recorded values is paper PMC12715762.
